- Tested on: NBD1
- Experiment description: Aggregation analysis of NBD1 thermal stability by differential static light scattering (DSLS)
- Format: binding, Human
- Condition: compound at 100 μM; ΔTagg versus DMSO control
Measure: DSLS NBD1/3D Human Stability delta-T (° C.) @ 100 (μM)

{"Molecule": "CC(O)(c1ccccc1)c1cnc(-c2cccc([S+]([O-])c3ccc4[nH]ccc4c3)c2)[nH]1 (stereo not shown)", "Target or system": "NBD1", "Measured": "C (≤4° C.)"}
{"Molecule": "CNCCS(=O)(=O)c1c(Oc2cccc(-c3ncc(C(C)(O)c4ccccc4)[nH]3)c2)c(F)cc2[nH]ccc12 (stereo not shown)", "Target or system": "NBD1", "Measured": "A (T ≥8° C.)"}
{"Molecule": "CS(=O)(=O)c1c(Oc2cccc(-c3ncc(C(N)c4ccccc4)[nH]3)c2)c(F)cc2[nH]ccc12 (stereo not shown)", "Target or system": "NBD1", "Measured": "A (T ≥8° C.)"}
{"Molecule": "NC(=O)CC(c1cccc(-c2nnc(Cc3ccccc3)[nH]2)c1)c1ccc2[nH]ccc2c1 (stereo not shown)", "Target or system": "NBD1", "Measured": "C (≤4° C.)"}

DSLS NBD1/3D Human Stability delta-T (° C.) @ 100 (μM) recorded for this molecule, OCc1c(Oc2cccc(-c3nnc(Cc4ccccc4)[nH]3)c2)ccc2[nH]ccc12 , is B (4-8° C.)

For record COCCNC(=O)c1c(Oc2cccc(-c3nc(C(O)c4ccccc4)c[nH]3)c2)ccc2[nH]ccc12 (stereo not shown) the listed DSLS NBD1/3D Human Stability delta-T (° C.) @ 100 (μM) is B (4-8° C.)

The recorded DSLS NBD1/3D Human Stability delta-T (° C.) @ 100 (μM) for entry C[S+]([O-])c1c(Oc2cccc(-c3ncc(C(O)c4ccccc4)[nH]3)c2)ccc2[nH]ccc12 (stereo not shown) equals B (4-8° C.)

Documented DSLS NBD1/3D Human Stability delta-T (° C.) @ 100 (μM) of CC(C(=O)O)(c1ccccc1)c1c[nH]c(-c2cc(Oc3c(F)cc4[nH]ccc4c3F)ccc2F)n1 (stereo not shown) : B (4-8° C.)

Noted for CC(O)(c1ccccc1)c1cnc(-c2cccc(Oc3ccc4[nH]ccc4c3S(C)(=O)=O)c2)[nH]1 (single isomer, unassigned) [Example 63A] : its DSLS NBD1/3D Human Stability delta-T (° C.) @ 100 (μM) reads A (T ≥8° C.)

The molecule listed as CNC(=O)CNC(=O)c1c(Oc2cccc(-c3ncc(C(O)c4ccccc4)[nH]3)c2)ccc2[nH]ncc12 (stereo not shown) shows DSLS NBD1/3D Human Stability delta-T (° C.) @ 100 (μM) equal to B (4-8° C.)

Lab book: DSLS NBD1/3D Human Stability delta-T (° C.) @ 100 (μM) of O=C1NCc2c[nH]c3ccc(Oc4cccc(-c5nnc(Cc6ccccc6)[nH]5)c4)c1c23 noted as C (≤4° C.)

Entry CN(C)CCNC(c1ccccc1)c1nnc(-c2cccc(Oc3ccc4[nH]ccc4n3)c2)[nH]1 (stereo not shown) , DSLS NBD1/3D Human Stability delta-T (° C.) @ 100 (μM) reported as B (4-8° C.)

Documented DSLS NBD1/3D Human Stability delta-T (° C.) @ 100 (μM) of CNS(=O)(=O)c1c(Oc2ccc(F)c(-c3ncc(C(C)(O)c4ccccc4)[nH]3)c2)c(F)cc2[nH]ccc12 (stereo not shown) : B (4-8° C.)

Recorded DSLS NBD1/3D Human Stability delta-T (° C.) @ 100 (μM) (molecule CC(O)(c1ccccc1)c1cnc(-c2cccc(Oc3cc(F)c4[nH]ccc4c3)c2)[nH]1 (stereo not shown) ): B (4-8° C.)

Short answer for OCc1c(Oc2cccc(-c3nc(Cc4ccccc4)cs3)c2)ccc2[nH]ccc12 : DSLS NBD1/3D Human Stability delta-T (° C.) @ 100 (μM) was C (≤4° C.)

# molecule c1ccc(Cc2nnc(-c3cccc(Oc4ccc5[nH]cc6c5c4CNC6)c3)[nH]2)cc1 ; its DSLS NBD1/3D Human Stability delta-T (° C.) @ 100 (μM) = C (≤4° C.)

Kindly note the recorded DSLS NBD1/3D Human Stability delta-T (° C.) @ 100 (μM) for O=C(NCC(O)C(F)(F)F)c1c(Oc2cccc(-c3nc(C(O)c4ccccc4)c[nH]3)c2)ccc2[nH]ccc12 (stereo not shown) , which is A (T ≥8° C.)

Lab note: O=C(O)Cc1c[nH]c2ccc(Oc3cccc(-c4nnc(Cc5ccccc5)[nH]4)c3)cc12 gave DSLS NBD1/3D Human Stability delta-T (° C.) @ 100 (μM) of C (≤4° C.)
